Hey, just so you know, these numbers are from ChEMBL document CHEMBL3507680.

Experiment: Human HepG2 cell viability assay in 384 well format
Type: toxicity, cell-based
Parameters: dose 125 nL, time 70.5 hour; concentration not given beside the values
Settings: HepG2 cells, read-out: Inhibition
Metric: cytotoxicity at 70.5 h (%)
One number for each entry, in %.

Below, 4 compounds whose answers are already recorded.
- Compound: "CC(C)N1CCC(CN2CCn3nc(CNC(=O)N(C)C)cc3C2)CC1"
  cytotoxicity at 70.5 h (%): 4.16
- Compound: "Cc1cc(Nc2ccc(F)cn2)cc(C2CCN(Cc3ncc[nH]3)C2)n1 (stereo unspecified)"
  cytotoxicity at 70.5 h (%): -0.353
- Compound: "CN(C)C(=O)CO[C@H]1CN(Cc2ccoc2)[C@@H]2COC[C@H]12"
  cytotoxicity at 70.5 h (%): -5.51
- Compound: "COc1cccc(-c2n[nH]cc2CNC2CCN(C3CC3)CC2)c1"
  cytotoxicity at 70.5 h (%): 29.3

# map each compound to its cytotoxicity at 70.5 h
1. COc1ccc(N2CCN(C(=O)Cn3nc(C)c(Cl)c3C)CC2)cc1
2. CC(=O)NCc1nn(C)c2c1CN(Cc1ccsc1)C2
3. CC(O)CN1CCN(C(=O)c2cc(Cl)cc3cccnc23)CC1 (stereo unspecified)
4. CNC(=O)CN(C)c1cncc(OCC(C)C)n1
5. Cc1c[nH]nc1C1CCCCN1C(=O)CNS(C)(=O)=O (stereo unspecified)
6. O=C1OCCN1c1cccc(CNS(=O)(=O)Cc2ccc(F)cc2)c1
7. Cc1cc(C)n(CCN2CCN(C(=O)c3ccc(Br)o3)CC2)n1
8. Cc1ccc(S(=O)(=O)NCCNC(=O)c2cncnc2C)cc1

OUT:
1: 4.1; 2: -6.78; 3: -5.43; 4: -5.85; 5: 9.79; 6: -6.39; 7: -4.56; 8: -2.92

* * *

Hi there, I'd appreciate the recorded cytotoxicity at 70.5 h for every entry that follows.
Experiment: Human HepG2 cell viability assay in 384 well format
Format: toxicity, cell-based
Set-up: dose 125 nL, time 70.5 hour; concentration not given beside the values
Conditions: HepG2 cells, read-out: Inhibition
Answers are plain numbers, in %.

Give one value of cytotoxicity at 70.5 h per listed compound.
1. Cc1ccc(S(=O)(=O)N(C)CC(N)=O)c(Cl)c1
2. Cc1cc(O)ccc1-c1cc(-c2cnn(C)c2C2CC2)c(C#N)c(N)n1
3. CC(Cc1ccccc1Cl)NC(=O)Nc1cnn(CC(N)=O)c1 (stereo not given)

OUT:
1. -10.6
2. 19.9
3. -2.99

Please look at the items below and tell me cytotoxicity at 70.5 h for each one, in order.
1. CN(C)c1cccc(C(=O)N2CCc3ccc(=O)[nH]c3CC2)c1
2. O=C(NCC1CCOCC1)[C@@H]1CC[C@@H]2[C@@H](CCN2Cc2ccncc2)O1
3. O=C1CCCN1CCc1nc(-c2ccsc2)no1
4. CC(C)C(C(=O)N1CCCN(c2cccnn2)CC1)n1cncn1 (stereo not given)
5. Cc1noc(C)c1CC(=O)N1CCCC(n2ccnc2C)C1 (stereo not given)
6. CNC(=O)CCN1CCN(C(C)c2ccc(Cl)cc2)CC1 (stereo not given)

OUT:
[-6.59, -0.695, -14.2, 4.13, -15.6, -6.21]

// for each compound in input: emit cytotoxicity at 70.5 h
1. CN(C)C(C(=O)N1CC(Oc2ccccc2F)C1)c1ccc(F)cc1 (stereo not given)
2. Cc1nc(C)n(CC2CCCCN2Cc2cn3ccccc3n2)n1 (stereo not given)

OUT:
-0.723
-19.3
